The reader will find reported growth values listed item by item below.
Tested on: SF-268 CNS
MEASUREMENT DESCRIPTION: NCI-60 one-dose screen, 48 h (100 = growth as untreated, 0 = no growth, -100 = all killed)
PARTICULARS: 10 µM unless noted
The panel holds about 83,000 compounds, 20% with a hit somewhere; the sample as a whole holds those more often.
Write it as a number; the unit % goes unstated.

Consider the worked cases shown below.
MOLECULE	TESTED TARGET	OBSERVABLE	U	MEASURED
O=C(Cn1cc(CN2C(=O)c3ccc([N+](=O)[O-])cc3C2=O)nn1)Nc1ccc(F)cc1Cl	SF-268 CNS	growth	%	99.8
COc1cnc2c(c1)C(=O)c1c-2n(CCCNCC2CC2)c(=O)c2cc(F)ccc12	SF-268 CNS	growth	%	14.6

Q: For the molecule COc1ccc2c(c1)oc1c3[nH]c4ccccc4c3c3c(c21)C(=O)N(O)C3=O , what growth is on record?
Ans: 33.5

Q: For the molecule CCc1ccc(NC(=O)N[C@@H](Cc2cccc(C)c2)C(=O)N[C@@H]2C(=O)N3CCC[C@H]3C(=O)N3CCCC[C@H]3C(=O)N[C@@H](CO)C(=O)N3C[C@H](C)C[C@H]3C(=O)O[C@H]2C)c(F)c1 , what growth is on record?
Ans: 30.1

Q: For the molecule N#C/C(=C\c1ccc(N2CCCCC2)cc1)C(=O)Nc1sc2c(c1C#N)CCC2 , what growth is on record?
Ans: 90.3

Q: For the molecule COc1ccc(NC(=O)[C@H](C)NC(=O)OC(C)(C)C)cc1C(=O)Nc1cccc(-c2cc(=O)c3c(OC)c(OC)c(OC)cc3o2)c1 , what growth is on record?
Ans: 34.9

Q: For the molecule C/C=C/[C@@H]1C=C[C@@H]2C[C@H](C)CC[C@H]2[C@]1(C)/C(O)=C1/C(=O)[C@H](CO)N(C)C1=O , what growth is on record?
Ans: 54.8

Q: For the molecule CCN1C(=O)N(CC)C2C1NN=C1SC(c3ccccc3)=CC(=O)N12 (stereo not drawn) , what growth is on record?
Ans: 62.4
